# Test system: affinity purified β2GPI-dependent antiphospholipid antibody
# Assay Info: Competitive inhibition ELISA: recombinant β2GPI proteins compete for antibody binding to coated full length recombinant β2GPI
# Parameters: species or system human
# Condition Summary: Ab 6652
Endpoint: Max (maximum inhibition observed at concentrations tested) (%)
Report the figure in % without appending any unit label.

Complete the entry with Max (maximum inhibition observed at concentrations tested) for recombinant β2GPI domain 5 with GlyHis6 (----5) (protein) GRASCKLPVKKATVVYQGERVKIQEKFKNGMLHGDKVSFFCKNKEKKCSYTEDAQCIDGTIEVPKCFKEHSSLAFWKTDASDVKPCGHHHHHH
15
